Molecular target: integrin α4β1 (very late activation antigen-4, VLA-4) (Homo sapiens, UniProt P05556+P13612)
Construct: endogenous integrin on Jurkat cells; with integrin β1 (ITGB1)
Sequence (P13612 34-1032): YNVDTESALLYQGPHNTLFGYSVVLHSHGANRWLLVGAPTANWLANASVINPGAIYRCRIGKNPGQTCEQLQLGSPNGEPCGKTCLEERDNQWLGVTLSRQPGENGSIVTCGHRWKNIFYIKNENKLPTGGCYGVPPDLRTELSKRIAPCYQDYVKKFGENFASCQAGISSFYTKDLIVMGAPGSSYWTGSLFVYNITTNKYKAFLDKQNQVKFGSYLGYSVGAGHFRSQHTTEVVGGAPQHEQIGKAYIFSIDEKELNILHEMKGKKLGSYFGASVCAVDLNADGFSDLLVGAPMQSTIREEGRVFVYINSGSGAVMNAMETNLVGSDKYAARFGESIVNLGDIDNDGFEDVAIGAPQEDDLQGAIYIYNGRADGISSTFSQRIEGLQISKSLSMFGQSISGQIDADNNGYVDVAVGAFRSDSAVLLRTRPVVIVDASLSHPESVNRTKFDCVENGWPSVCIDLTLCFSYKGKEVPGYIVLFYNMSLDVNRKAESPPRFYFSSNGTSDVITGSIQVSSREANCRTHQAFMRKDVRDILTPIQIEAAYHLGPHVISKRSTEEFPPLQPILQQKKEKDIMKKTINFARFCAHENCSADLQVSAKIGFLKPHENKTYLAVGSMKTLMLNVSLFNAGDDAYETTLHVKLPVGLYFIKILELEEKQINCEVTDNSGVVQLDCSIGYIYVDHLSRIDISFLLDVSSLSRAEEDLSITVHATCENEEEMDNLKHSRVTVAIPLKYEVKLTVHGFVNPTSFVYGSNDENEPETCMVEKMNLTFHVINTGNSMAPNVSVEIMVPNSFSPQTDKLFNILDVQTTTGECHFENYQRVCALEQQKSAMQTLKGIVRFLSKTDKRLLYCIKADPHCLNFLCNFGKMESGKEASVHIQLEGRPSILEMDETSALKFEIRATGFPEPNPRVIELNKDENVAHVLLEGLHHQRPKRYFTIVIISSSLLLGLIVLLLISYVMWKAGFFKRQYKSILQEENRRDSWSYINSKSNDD
Sequence (P05556 21-798): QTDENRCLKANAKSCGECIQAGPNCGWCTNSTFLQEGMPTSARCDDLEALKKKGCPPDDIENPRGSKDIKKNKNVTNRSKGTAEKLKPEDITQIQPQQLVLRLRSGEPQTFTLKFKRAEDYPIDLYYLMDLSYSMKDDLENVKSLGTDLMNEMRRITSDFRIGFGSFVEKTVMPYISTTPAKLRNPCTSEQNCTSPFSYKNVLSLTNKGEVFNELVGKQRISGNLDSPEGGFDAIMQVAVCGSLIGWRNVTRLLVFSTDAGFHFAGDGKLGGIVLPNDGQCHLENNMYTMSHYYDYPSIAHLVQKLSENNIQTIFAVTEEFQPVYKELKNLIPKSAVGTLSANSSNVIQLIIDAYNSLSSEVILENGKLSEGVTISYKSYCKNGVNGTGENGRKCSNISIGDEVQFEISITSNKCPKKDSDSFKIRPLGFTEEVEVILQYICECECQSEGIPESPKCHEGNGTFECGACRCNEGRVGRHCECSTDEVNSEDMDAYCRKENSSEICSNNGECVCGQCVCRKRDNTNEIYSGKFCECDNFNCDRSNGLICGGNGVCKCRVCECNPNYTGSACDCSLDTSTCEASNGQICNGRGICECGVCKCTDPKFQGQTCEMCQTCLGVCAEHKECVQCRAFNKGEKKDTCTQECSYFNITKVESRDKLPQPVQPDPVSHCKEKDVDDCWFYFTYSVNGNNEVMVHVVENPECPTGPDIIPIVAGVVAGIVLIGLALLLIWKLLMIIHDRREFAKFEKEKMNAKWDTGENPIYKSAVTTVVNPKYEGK
Experiment: static adhesion of Jurkat cells to VCAM-1; blocked by anti-α[…] or anti-β[…] mAb
measurement_name: pEC50
// pEC50: -log10(molar conc.)

# get_value(readout='pEC50', item= `O=C(OCCOCCOCCOC(=O)N(Cc1cccs1)Cc1cccs1)N(Cc1cccs1)Cc1cccs1` )
5.70
